Across several studies, molecules have been characterized by their pIC50 on M-phase inducer phosphatase 2 (Homo sapiens); a selection follows.
Sequence (P30305 whole entry): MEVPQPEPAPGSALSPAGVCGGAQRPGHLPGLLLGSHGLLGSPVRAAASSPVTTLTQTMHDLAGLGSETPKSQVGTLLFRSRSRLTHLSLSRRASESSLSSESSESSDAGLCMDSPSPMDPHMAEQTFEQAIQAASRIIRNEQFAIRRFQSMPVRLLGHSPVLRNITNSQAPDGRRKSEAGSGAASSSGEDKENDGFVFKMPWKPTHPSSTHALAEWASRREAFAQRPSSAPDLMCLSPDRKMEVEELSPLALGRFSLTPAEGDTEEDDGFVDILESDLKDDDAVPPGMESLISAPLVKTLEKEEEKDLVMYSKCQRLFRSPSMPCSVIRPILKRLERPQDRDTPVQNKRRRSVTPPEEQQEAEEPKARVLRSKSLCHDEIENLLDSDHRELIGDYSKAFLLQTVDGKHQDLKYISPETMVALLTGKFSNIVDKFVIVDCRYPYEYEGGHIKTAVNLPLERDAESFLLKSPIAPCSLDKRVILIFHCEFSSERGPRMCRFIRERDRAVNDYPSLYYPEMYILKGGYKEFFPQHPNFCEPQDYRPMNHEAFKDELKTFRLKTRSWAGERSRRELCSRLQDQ
pIC50: −log10 of the molar value.
Short version: pIC50 at least 5 is Met, less is Not met.

Answered cases to consult:
[[record]]
molecule = "CCCCCCCCCCCCCCCC(NCc1cccc(N(C)C)c1)=C1C(=O)OC(CO)C1=O (mixture of isomers)"
category_label = "Met"

[[record]]
molecule = "O=C(CSc1nnc(-c2ccc(Cl)cc2)n1-c1ccccc1)c1ccc(O)c(O)c1"
category_label = "Met"

[[record]]
molecule = "CCCCCCCCC1=C(CCC(=O)O)C(=O)OC1=O"
category_label = "Not met"

[[record]]
molecule = "O=C(O)[C@@H]1Cc2cc(I)c(OCc3cccc(C(F)(F)F)c3)c(I)c2CN1C(=O)c1cccnc1Cl"
category_label = "Not met"

[[record]]
molecule = "O=C(CCc1c[nH]c2ccccc12)N[C@@H](Cc1ccc(OCc2ccccc2)cc1)c1nc(C(=O)Nc2cc(F)ccc2C(=O)O)c(-c2ccccc2)s1"
category_label = "Met"

[[record]]
molecule = "CC(=O)O[C@@]1(C)CC/C(C)=C\\CC[C@]2(C)[C@@H]([C@H](C)CCCC(C)C)CC[C@H]2c2ccc(cc2C(C)O)C1 (some centres undefined)"
category_label = "Not met"


Field: next molecule
Challenge: Could you please find out whether "O=C(O)[C@@H]1Cc2cc(I)c(OCc3ccc(Cl)cc3Cl)c(I)c2CN1C(=O)/C=C/c1cc(Cl)cc(Cl)c1" has pIC50 that meets 5 or exceeds it?
Response given: Not met
